study_system: human opioid δ receptor (Homo sapiens, UniProt P41143)
Construct: host or cells: CHO cells
Sequence (P41143 whole entry): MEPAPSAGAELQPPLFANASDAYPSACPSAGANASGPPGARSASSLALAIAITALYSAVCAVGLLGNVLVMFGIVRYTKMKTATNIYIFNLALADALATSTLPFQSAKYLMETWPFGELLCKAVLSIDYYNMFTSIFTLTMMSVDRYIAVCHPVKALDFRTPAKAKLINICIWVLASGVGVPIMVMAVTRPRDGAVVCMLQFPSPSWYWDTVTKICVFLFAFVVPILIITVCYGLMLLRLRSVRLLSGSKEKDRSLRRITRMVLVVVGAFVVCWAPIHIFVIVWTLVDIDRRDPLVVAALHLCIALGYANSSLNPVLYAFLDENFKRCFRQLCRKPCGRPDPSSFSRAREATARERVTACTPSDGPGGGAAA
run_description: Opioid receptor function test (agonist activity, Lance Ultra cAMP kit), δ receptor
Format: cell-based
pEC50: −log10 of the molar value.
The entries below come with measured pEC50 values attached.
result_type: pEC50

Cc1c2c(nn1C(C)(C)C)C[C@]13CCN(CC4CC4)[C@H](Cc4ccc(O)cc41)[C@]3(O)C2; 9.85
Cc1nn(-c2cccnc2)c2c1C[C@@]1(O)[C@H]3Cc4ccc(O)cc4[C@@]1(CCN3CC1CC1)C2; 9.30
Cc1nn(C2CCSCC2)c2c1C[C@@]1(O)[C@H]3Cc4ccc(O)cc4[C@@]1(CCN3CC1CC1)C2; 10.16
Cc1c2c(nn1C(C)C)C[C@]13CCN(CC4CC4)[C@H](Cc4ccc(O)cc41)[C@]3(O)C2; 9.74
Cc1c2c(nn1C1CCCC1)C[C@]13CCN(CC4CC4)[C@H](Cc4ccc(O)cc41)[C@]3(O)C2; 9.96
Cc1[nH]nc2c1C[C@@]1(O)[C@H]3Cc4ccc(O)cc4[C@@]1(CCN3CC1CC1)C2; 8.89
Cc1nn(C(C)C)c2c1C[C@@]1(O)[C@H]3Cc4ccc(O)cc4[C@@]1(CCN3CC1CC1)C2; 9.32
Cc1c2c(nn1C1CC1)C[C@]13CCN(CC4CC4)[C@H](Cc4ccc(O)cc41)[C@]3(O)C2; 9.89
Cc1c2c(nn1CC1CCCCC1)C[C@]13CCN(CC4CC4)[C@H](Cc4ccc(O)cc41)[C@]3(O)C2; 9.00
Cc1nn(-c2ccccn2)c2c1C[C@@]1(O)[C@H]3Cc4ccc(O)cc4[C@@]1(CCN3CC1CC1)C2; 9.08

###

study_system: human opioid κ receptor (Homo sapiens)
Construct: host or cells: CHO cells
Sequence (P41145 whole entry): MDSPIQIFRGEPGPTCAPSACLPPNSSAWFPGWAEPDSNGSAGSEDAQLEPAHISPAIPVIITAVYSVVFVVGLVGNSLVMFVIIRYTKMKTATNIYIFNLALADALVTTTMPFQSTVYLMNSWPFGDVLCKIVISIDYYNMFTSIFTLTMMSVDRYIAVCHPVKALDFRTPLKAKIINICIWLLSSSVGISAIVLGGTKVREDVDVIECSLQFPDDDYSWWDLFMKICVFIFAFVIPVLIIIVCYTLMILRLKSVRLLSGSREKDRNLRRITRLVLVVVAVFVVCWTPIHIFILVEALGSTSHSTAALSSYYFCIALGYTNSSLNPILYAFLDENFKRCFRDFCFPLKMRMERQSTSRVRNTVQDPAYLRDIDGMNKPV
run_description: Opioid receptor function test (agonist activity, Lance Ultra cAMP kit), κ receptor
Assay type: cell-based
condition_details: maximum reaction relative to control drug U-69593 taken as 100%
Lab note: anything with Emax below 20% is marked Satisfied; values at 20% or higher are marked Not satisfied.

Cc1c2c(nn1C1CCC1)C[C@]13CCN(CC4CC4)[C@H](Cc4ccc(O)cc41)[C@]3(O)C2; Not satisfied
Cc1nn(C2CCN(C)CC2)c2c1C[C@@]1(O)[C@H]3Cc4ccc(O)cc4[C@@]1(CCN3CC1CC1)C2; Not satisfied
Cc1c2c(nn1C1CC1)C[C@]13CCN(CC4CC4)[C@H](Cc4ccc(O)cc41)[C@]3(O)C2; Not satisfied
Cc1c2c(nn1C1CCCC1)C[C@]13CCN(CC4CC4)[C@H](Cc4ccc(O)cc41)[C@]3(O)C2; Not satisfied
Cc1c2c(nn1C(C)(C)C)C[C@]13CCN(CC4CC4)[C@H](Cc4ccc(O)cc41)[C@]3(O)C2; Not satisfied
Cc1nn(-c2ccncc2)c2c1C[C@@]1(O)[C@H]3Cc4ccc(O)cc4[C@@]1(CCN3CC1CC1)C2; Satisfied
Cc1c2c(nn1C1CCSCC1)C[C@]13CCN(CC4CC4)[C@H](Cc4ccc(O)cc41)[C@]3(O)C2; Satisfied

###

study_system: UniProt:P41143
run_description: Opioid receptor function test (agonist activity, Lance Ultra cAMP kit), δ receptor
result_type: EC50 (nM)

Cc1nn(-c2ccncc2)c2c1C[C@@]1(O)[C@H]3Cc4ccc(O)cc4[C@@]1(CCN3CC1CC1)C2; 0.33
Cc1nn(C2CC2)c2c1C[C@@]1(O)[C@H]3Cc4ccc(O)cc4[C@@]1(CCN3CC1CC1)C2; 0.93
Cc1nn(C2CCN(C)CC2)c2c1C[C@@]1(O)[C@H]3Cc4ccc(O)cc4[C@@]1(CCN3CC1CC1)C2; 0.23
Cc1nn(C2CCCCC2)c2c1C[C@@]1(O)[C@H]3Cc4ccc(O)cc4[C@@]1(CCN3CC1CC1)C2; 0.089

Cited source: patent US20230141198A1
